Origin of measurements: patent US7709526B2

Reported IC50 values are given for each entry in this list.
# Test system: HL60/Nov acute myeloid leukemia cells (cytostatic-resistant)
# measurementDescription: Viability of leukemia cells, HL60/Nov
# Format: cell-based, human
# assayConditions: 72 h, read-out: IC50 for viability of leukemia cell lines
valueKind: IC50

>>> reportedvalue("COc1cc([C@@H]2c3cc4c(cc3C[C@H]3COC(=O)[C@@H]32)OCO4)cc(OC)c1OC [Deoxypodophyllotoxin, deoxypodophyllotoxin]")
"2 nM"
>>> reportedvalue("COc1cc([C@@H]2c3cc4c(cc3[C@H](O)[C@H]3COC(=O)[C@H]23)OCO4)cc(OC)c1O [4′-demethylpodophyllotoxin]")
"18 nM"
>>> reportedvalue("COc1cc([C@@H]2c3cc4c(cc3C(=O)[C@H]3COC(=O)[C@H]23)OCO4)cc(OC)c1OC [Podophyllotoxone, podophyllotoxone]")
"> 500 nM"
>>> reportedvalue("COc1cc([C@@H]2c3cc4c(cc3[C@H](OC(C)=O)[C@H]3COC(=O)[C@H]23)OCO4)cc(OC)c1OC [Acetylpodophyllotoxin, acetylpodophyllotoxin]")
"46 nM"
